- assayedSystem: d-enCas12a-Ultra (Acidaminococcus sp., UniProt U2UMQ6 1-1307, E174R;S542R;K548R;M537R;F870L;D908A;E993A;D1235A)
- testName: Spec-seq (native PAGE EMSA with sequencing of bound and unbound); 25 mM Tris-HCl pH 7.4, 150 mM KCl, 5 mM MgCl2, 10% glycerol, 1 mM DTT, 40 ng/uL salmon sperm DNA; 400 nM Cas12a, 480 nM crRNA, 50 nM library, 37 C 1 h; native PAGE at room temperature; high values mean tight binding;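 further: relative affinity from the bound to unbound sequence frequency ratio in Spec-seq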
- conditionSummary: protein: recombinant
readoutType: binding signal (lnKA)
Give the number; lnKA is assumed, so skip it.

Examples from the recorded data:
binder	binding signal / lnKA
TGAG (dsDNA) DNA 1: GCTATCTAGTGCTCAGTACGCACTGTGAGAGGAAACTTCTGGCAGGACCAGGTCATGAGATCGGAAGAGCACACGTCTGAACTCCAGTCA DNA 2: TGACTGGAGTTCAGACGTGTGCTCTTCCGATCTCATGACCTGGTCCTGCCAGAAGTTTCCTCTCACAGTGCGTACTGAGCACTAGATAGC RNA: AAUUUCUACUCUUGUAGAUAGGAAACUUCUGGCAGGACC	-3.4
CTGT (dsDNA) DNA 1: GCTATCTAGTGCTCAGTACGCACTGCTGTAGGAAACTTCTGGCAGGACCAGGTCATGAGATCGGAAGAGCACACGTCTGAACTCCAGTCA DNA 2: TGACTGGAGTTCAGACGTGTGCTCTTCCGATCTCATGACCTGGTCCTGCCAGAAGTTTCCTACAGCAGTGCGTACTGAGCACTAGATAGC RNA: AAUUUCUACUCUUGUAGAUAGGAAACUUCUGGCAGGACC	-3.21

Notebook: GAGC (dsDNA) DNA 1: GCTATCTAGTGCTCAGTACGCACTGGAGCAGGAAACTTCTGGCAGGACCAGGTCATGAGATCGGAAGAGCACACGTCTGAACTCCAGTCA DNA 2: TGACTGGAGTTCAGACGTGTGCTCTTCCGATCTCATGACCTGGTCCTGCCAGAAGTTTCCTGCTCCAGTGCGTACTGAGCACTAGATAGC RNA: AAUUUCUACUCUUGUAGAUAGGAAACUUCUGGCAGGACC , binding signal read as -3.45

The reported numbers originate from paper PMC8222333.
